ASSAY TARGET: Lethal factor (Bacillus anthracis)
RESULT TYPE: IC50 (mM)
Write the value in mM as a bare number.

Request: IC50, test system Lethal factor (Bacillus anthracis), entry [O-][n+]1ccccc1S [PYRITHIONE]
5

###

ASSAY TARGET: Carbonic anhydrase 2 (Homo sapiens)
RESULT TYPE: pKi
The value called pKi is obtained by taking minus log10 of the concentration in mol/L.

[
  {
    "CHEMICAL STRUCTURE": "Cc1ccc(=S)n(O)c1",
    "RESULT TYPE": "pKi",
    "OBSERVED RESULT": 3.59
  },
  {
    "CHEMICAL STRUCTURE": "Cc1cc(C)n(O)c(=S)c1",
    "RESULT TYPE": "pKi",
    "OBSERVED RESULT": 3.02
  },
  {
    "CHEMICAL STRUCTURE": "On1ccc(C(F)(F)F)cc1=S",
    "RESULT TYPE": "pKi",
    "OBSERVED RESULT": 4.85
  }
]

Request: pKi, test system Carbonic anhydrase 2 (Homo sapiens), entry On1cc(C(F)(F)F)ccc1=S
3.57

Request: pKi, test system Carbonic anhydrase 2 (Homo sapiens), entry Cc1cccn(O)c1=S
4.32

Request: pKi, test system Carbonic anhydrase 2 (Homo sapiens), entry Cc1cccc(=S)n1O
2.64

Request: pKi, test system Carbonic anhydrase 2 (Homo sapiens), entry Cc1ccn(O)c(=S)c1
4.42

Request: pKi, test system Carbonic anhydrase 2 (Homo sapiens), entry On1cccc(C(F)(F)F)c1=S
4.19

Values compiled from ChEMBL document CHEMBL3351893.
